system: MCF7 (breast adenocarcinoma); experiment: Cell viability assay (Cell Titer-Glo), MCF7; assay type: cell-based, human; conditions: cytotoxicity after 72 h of compound treatment, Cell Titer-Glo (ATP levels); read-out: IC50 (μM) MCF7
Measured IC50 by item
READOUT TYPE: IC50 (µM)

compound="CCC[C@H](O)CC(=O)N1CC[C@@]23c4ccccc4N[C@@H]4N(C)c5cccc6c5[C@@]42CCN([C@@H]13)[C@@H]6[C@H]1OC1(C)C [(−)-10, (−)-communesin I]" target_system="MCF7 (breast adenocarcinoma)" reading_qualifier== observed=90
compound="CC(=O)N1CC[C@@]23c4ccccc4N[C@@H]4N(C)c5cccc6c5[C@@]42CCN([C@@H]6C=C(C)C)[C@@H]13 [(−)-1, (−)-communesin F]" target_system="MCF7 (breast adenocarcinoma)" reading_qualifier== observed=84
compound="CCCC(=O)N1CC[C@]23c4ccccc4N[C@H]4N(C)c5cccc6c5[C@]42CCN([C@H]6[C@@H]2OC2(C)C)[C@H]13 [(−)-8, (−)-communesin H]" target_system="MCF7 (breast adenocarcinoma)" reading_qualifier== observed=90
compound="CCC(=O)N1CC[C@]23c4ccccc4N[C@H]4N(C)c5cccc6c5[C@]42CCN([C@H]6[C@@H]2OC2(C)C)[C@H]13 [(−)-7, (−)-communesin G]" target_system="MCF7 (breast adenocarcinoma)" reading_qualifier=> observed=250
